We begin with a simple list: items and their reported protein stability index.
assay: protein stability index of a GFP-peptide fusion (yeast GPS) (PSI 1-4); higher = more stable; sorted into four equal gates, so the index is relative within each strain; details: pdr5∆
recorded endpoint: protein stability index

| polymer sequence | meas value |
| --- | --- |
| LCKSATTKMWPTNCPLR [BRR2] | 2.68 |
| KFFRVKYENKISTVIEV [SMC3] | 1.2 |
| LQKRVIEHNLRVISEYY [RPN5] | 2.27 |
| KTLVYLEKCEAEFKKRK [YCS4] | 3.69 |
| TAETGYIQRRLVKALED [RPO21] | 2.74 |
| YIESKFCPGEIVGKSNV [YMR129W/POM152] | 2.92 |
| LISGPRNQILVSITDAP [YMR129W/POM152] | 1.81 |
| LLNILITYGIIKVPTYI [SRB8] | 1.52 |
| KLKLLRMERIKDHLLLE [RPT2] | 2.05 |
| TETALMNLKKELQGYIE [SRB5] | 3.07 |
| PGDIVRAQVLSLGDGTN [CSL4] | 3.26 |
| ETEAEEDHMLKKIENTM [RPO21] | 3.37 |
| RHGFNRSNTGALMRCSF [RPO21] | 3.01 |
| SNIPTLIEKLQGFSKDT [YDL116W/NUP84] | 3.23 |
